pIC50: −log10 of the molar value. Structures can show the parent of a compound that is named as a salt.
Assay read-out pIC50; system under study: human factor Xa (FXa) (Homo sapiens, UniProt P00742).
Sequence (P00742 235-488 limits assumed): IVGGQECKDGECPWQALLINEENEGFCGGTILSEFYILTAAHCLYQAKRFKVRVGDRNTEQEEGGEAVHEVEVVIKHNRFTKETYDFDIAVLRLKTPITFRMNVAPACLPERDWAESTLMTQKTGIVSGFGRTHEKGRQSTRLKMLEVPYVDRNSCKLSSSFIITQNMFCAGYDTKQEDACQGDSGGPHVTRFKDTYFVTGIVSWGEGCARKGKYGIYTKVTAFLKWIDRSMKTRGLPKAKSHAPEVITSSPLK
Sequence (P00742 41-179 partner limits assumed): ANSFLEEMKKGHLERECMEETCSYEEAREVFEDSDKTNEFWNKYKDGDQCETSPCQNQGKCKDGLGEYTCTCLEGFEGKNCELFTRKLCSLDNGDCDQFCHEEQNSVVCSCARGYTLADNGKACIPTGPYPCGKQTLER
OBSERVED PROPERTY: pIC50

NCCOc1cc(N2CCOCC2=O)ccc1NC(=O)c1nccnc1C(=O)Nc1ccc(Cl)cn1 [Example 32, trifluoroacetate] | 9.52

[1] O=C(Nc1ccc(Cl)cn1)c1nccnc1C(=O)Nc1ccc(-n2cccc(CNC3CC3)c2=O)cc1F [Example 30, trifluoroacetate]
[2] Cc1ccc(NC(=O)c2nccnc2C(=O)Nc2ccc(N3CCOCC3=O)cc2)cc1 [Example 18]
// pick larger pIC50 from pair: 1 vs 2 Choose, then provide that item's label. 1
(1: 9.36, 2: 8.12)

Cited source: patent US20060287315A1
